target: T1, Anti-CD28 Fab (SEQ ID NOs: 696, 697); experiment: phage binding ELISA; clonal phage on biotinylated anti-CD28 Fab captured on neutravidin, anti-M13-HRP detection
T1 construct: Biotinylated and captured on neutravidin coated plates in the phage ELISA
T1 sequence (VH, as listed by the source, chain 1 of 2): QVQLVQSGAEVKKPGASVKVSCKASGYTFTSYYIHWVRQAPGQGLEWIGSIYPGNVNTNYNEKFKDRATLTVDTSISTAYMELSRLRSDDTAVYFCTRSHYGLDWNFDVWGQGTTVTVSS
T1 sequence (VL, as listed by the source, chain 2 of 2): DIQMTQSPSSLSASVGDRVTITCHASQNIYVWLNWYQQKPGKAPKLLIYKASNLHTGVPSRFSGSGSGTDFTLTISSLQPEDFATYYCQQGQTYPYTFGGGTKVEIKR
readout_label: Anti-CD28 Fab (SEQ ID NOs: 696, 697) signal

binder="GCAAGANYPWPLCL (peptide, not shown: large carriers) [Phage-1516]" experimental_value=1.59
binder="TCAAGAHWIWPWCE (peptide, not shown: large carriers) [Phage-1513]" experimental_value=1.61
binder="TCAAGAYYAWPMCL (peptide, not shown: large carriers) [Phage-1517]" experimental_value=1.59
binder="SCAAGATYEWPRCL (peptide, not shown: large carriers) [Phage-1515]" experimental_value=1.6
